Target: human GRIN1 (transcript variant NR1-3) and GRIN2D expressed in Xenopus oocytes (Homo sapiens, UniProt O15399)
Construct: GenScript (GRIN2D synthesis) SC115601; host or cells: Xenopus oocytes injected with cRNA (1 GluN1 : 2 GluN2)
Assay: NR2D oocyte potentiation assay (two-electrode voltage clamp)
Type: cell-based
Conditions: 10 uM test compound; glutamate and glycine 10 μM each; holding potential −40 mV
recorded-endpoint: activation at 10 µM

Past entries and their recorded results:
[
  {
    "molecule": "C[C@H]1CSc2nc(-c3ccc(C(C)(C)C)nc3)c(C#N)c(=O)n2C1",
    "result": "100 to 500%"
  },
  {
    "molecule": "CSCC1COc2nc(-c3cnc(C(C)(C)C)c(F)c3)c(C#N)c(=O)n2C1 (stereo not drawn)",
    "result": "10 to 100%"
  },
  {
    "molecule": "CC1CSc2cc(-c3cnc(C(C)(C)C)c(F)c3)c(C#N)c(=O)n2C1 (stereo not drawn)",
    "result": "> 1000%"
  },
  {
    "molecule": "CN1CSc2nc(-c3cnc(C(C)(C)C)nc3)c(C#N)c(=O)n2C1",
    "result": "10 to 100%"
  }
]

Incoming: So what does the record say about activation at 10 µM for `C[C@H]1CSc2nc(-c3cnc(C(C)(C)C)nc3)c(C#N)c(=N)n2C1` ?
Outgoing: > 1000%

Incoming: Please give the measured activation at 10 µM for this molecule: `Cc1ccc(-c2ccc(-c3nc4n(c(=O)c3C#N)CCCS4)c(F)c2)cc1`
Outgoing: 10 to 100%

Incoming: May I ask what activation at 10 µM has been recorded for CC1CSc2nc(-c3cnc(C(C)(C)C)nc3)c(C#N)c(=O)n2C1 (stereo not drawn) ?
Outgoing: > 1000%

Incoming: Dear colleague, I am looking for the recorded activation at 10 µM of the following molecule: `C[C@@H]1CSc2nc(-c3cnc(C(C)(C)C)nc3)c(C#N)c(=N)n2C1`
Outgoing: > 1000%

Incoming: Item `C/N=c1/c(C#N)c(-c2ccc(C(C)(C)C)cc2)nc2n1CCCS2` has what recorded activation at 10 µM?
Outgoing: 500 to 1000%

----------
Molecular target: human GRIN1 (variant NR1-3) and GRIN2D expressed in HEK293 cells (Homo sapiens)
Construct: GenScript (GRIN2D synthesis) SC115601; host or cells: HEK293
Sequence (O15399 28-1336, other chains not shown): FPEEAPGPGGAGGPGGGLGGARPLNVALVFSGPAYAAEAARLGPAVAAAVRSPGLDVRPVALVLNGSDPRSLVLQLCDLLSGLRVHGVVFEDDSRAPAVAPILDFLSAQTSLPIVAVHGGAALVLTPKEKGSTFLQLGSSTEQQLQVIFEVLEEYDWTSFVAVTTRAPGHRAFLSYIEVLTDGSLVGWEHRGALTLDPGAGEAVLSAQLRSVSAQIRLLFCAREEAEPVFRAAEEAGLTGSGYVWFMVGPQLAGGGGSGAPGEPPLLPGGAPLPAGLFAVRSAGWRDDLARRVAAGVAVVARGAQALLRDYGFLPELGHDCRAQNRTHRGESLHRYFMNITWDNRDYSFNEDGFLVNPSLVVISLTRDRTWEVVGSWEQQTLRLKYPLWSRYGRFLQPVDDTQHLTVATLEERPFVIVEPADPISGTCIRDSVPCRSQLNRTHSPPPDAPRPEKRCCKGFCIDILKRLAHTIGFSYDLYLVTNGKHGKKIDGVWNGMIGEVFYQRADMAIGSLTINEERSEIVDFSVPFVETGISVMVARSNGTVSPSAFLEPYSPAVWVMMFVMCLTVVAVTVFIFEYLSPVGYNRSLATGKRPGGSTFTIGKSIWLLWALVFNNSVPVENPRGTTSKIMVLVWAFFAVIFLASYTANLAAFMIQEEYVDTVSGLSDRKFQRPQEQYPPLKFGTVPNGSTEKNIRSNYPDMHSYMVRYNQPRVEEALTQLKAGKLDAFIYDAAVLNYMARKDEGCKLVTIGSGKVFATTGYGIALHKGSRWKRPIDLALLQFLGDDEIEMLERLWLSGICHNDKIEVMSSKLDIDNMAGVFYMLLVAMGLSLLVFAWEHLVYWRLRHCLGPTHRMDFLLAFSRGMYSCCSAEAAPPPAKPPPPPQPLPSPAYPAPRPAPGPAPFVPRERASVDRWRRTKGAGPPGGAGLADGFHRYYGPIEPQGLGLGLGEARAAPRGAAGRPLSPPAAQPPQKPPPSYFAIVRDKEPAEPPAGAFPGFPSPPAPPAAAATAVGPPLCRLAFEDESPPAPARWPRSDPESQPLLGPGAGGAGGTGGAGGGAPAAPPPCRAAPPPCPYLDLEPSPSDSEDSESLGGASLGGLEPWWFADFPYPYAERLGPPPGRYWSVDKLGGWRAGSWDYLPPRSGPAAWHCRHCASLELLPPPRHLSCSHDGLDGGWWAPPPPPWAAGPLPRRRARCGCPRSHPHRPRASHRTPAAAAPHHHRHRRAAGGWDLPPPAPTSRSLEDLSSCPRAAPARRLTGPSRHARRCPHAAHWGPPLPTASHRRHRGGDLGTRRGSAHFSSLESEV
Assay: GluN2D PAM CIQ fluorescence assay (Fluo-8 calcium, FDSS 6000)
Assay type: cell-based
Settings: relative to CIQ (100 uM) = 100%, read-out: NR2D Percent CIQ Avg Max Measured Effect
recorded-endpoint: Emax

[
  {
    "compound": "CC(C)(C)c1ccc(-c2nc3n(c(=O)c2C#N)CC(O)CS3)cc1 (stereo not shown)",
    "recorded-endpoint": "Emax",
    "result": "50 to 100%"
  },
  {
    "compound": "CN(C)C(=O)/N=c1/c(C#N)c(-c2ccc(C(C)(C)C)cc2)nc2n1CCCS2",
    "recorded-endpoint": "Emax",
    "result": "100 to 200%"
  },
  {
    "compound": "CC(C)(C)c1ccc(-c2nc3n(/c(=N\\C(=O)C(F)(F)F)c2C#N)CCCS3)cc1",
    "recorded-endpoint": "Emax",
    "result": "10 to 50%"
  },
  {
    "compound": "CC1CSc2nc(-c3ccc(C(C)(C)C)nc3)c(C#N)c(=O)n2C1 (stereo not shown)",
    "recorded-endpoint": "Emax",
    "result": "100 to 200%"
  },
  {
    "compound": "C[C@H]1CSc2nc(-c3ccc(C(C)(C)C)nc3)c(C#N)c(=N)n2C1",
    "recorded-endpoint": "Emax",
    "result": "100 to 200%"
  }
]

Incoming: Can you look up Emax on human GRIN1 (variant NR1-3) and GRIN2D expressed in HEK293 cells (Homo sapiens) for CC1CSc2nc(-c3ccc(N(C)C)nc3)c(C#N)c(=O)n2C1 (stereo not shown) ?
Outgoing: 50 to 100%

Incoming: Request body: readout Emax, system human GRIN1 (variant NR1-3) and GRIN2D expressed in HEK293 cells (Homo sapiens), query `C/N=c1/c(C#N)c(-c2ccc(C(C)(C)C)cc2)nc2n1CCCS2` . Return the value.
Outgoing: > 200%

Incoming: What Emax appears in the records for this compound with human GRIN1 (variant NR1-3) and GRIN2D expressed in HEK293 cells (Homo sapiens)? `CC(C)(C)c1ccc(-c2nc3scc(N)n3c(=O)c2C#N)cc1`
Outgoing: 10 to 50%

Incoming: Could you share what Emax was measured for `CC(C)(C)c1ccc(-c2nc3n(c(=O)c2C#N)CC2(CC2)CS3)cc1` , tested on human GRIN1 (variant NR1-3) and GRIN2D expressed in HEK293 cells (Homo sapiens)?
Outgoing: 100 to 200%

Incoming: Emax of `COc1ccc(-c2nc3n(c(=O)c2C#N)CCCS3)c(OC)c1` on human GRIN1 (variant NR1-3) and GRIN2D expressed in HEK293 cells (Homo sapiens)?
Outgoing: 10 to 50%

----------
Molecular target: human GRIN1 (transcript variant NR1-3) and GRIN2D expressed in Xenopus oocytes (Homo sapiens, UniProt O15399)
Construct: GenScript (GRIN2D synthesis) SC115601; host or cells: Xenopus oocytes injected with cRNA (1 GluN1 : 2 GluN2)
Assay: NR2D oocyte potentiation assay (two-electrode voltage clamp)
Format: cell-based
Settings: 10 uM test compound; glutamate and glycine 10 μM each; holding potential −40 mV
recorded-endpoint: activation at 10 µM

Please review the entries below; each comes with its answer.
[
  {
    "compound": "C[C@H]1CSc2nc(-c3cnc(C(C)(C)C)c(F)c3)c(C#N)c(=O)n2C1 [Example 98]",
    "recorded-endpoint": "activation at 10 µM",
    "result": "> 1000%"
  },
  {
    "compound": "CC(C)(C)c1ccc(-c2nc3n(c(=O)c2C#N)C[C@@H](CO)CS3)cn1 [Example 129]",
    "recorded-endpoint": "activation at 10 µM",
    "result": "> 1000%"
  },
  {
    "compound": "CC1CSc2nc(-c3ccc(C(C)(C)O)nc3)c(C#N)c(=O)n2C1 (stereo not shown) [Example 85]",
    "recorded-endpoint": "activation at 10 µM",
    "result": "10 to 100%"
  },
  {
    "compound": "COC[C@@H]1CSc2nc(-c3cnc(C(C)(C)C)c(F)c3)c(C#N)c(=O)n2C1 [Example 167]",
    "recorded-endpoint": "activation at 10 µM",
    "result": "> 1000%"
  }
]

Incoming: Report activation at 10 µM for COCC1CSc2nc(-c3cnc(C(C)(C)C)c(F)c3)c(C#N)c(=O)n2C1 (stereo not shown) [Example 125] please.
Outgoing: > 1000%

Incoming: Please report the recorded activation at 10 µM for C[C@@H]1CSc2cc(-c3cnc(C(C)(C)C)nc3)c(C#N)c(=O)n2C1 [Example 105] .
Outgoing: > 1000%

Incoming: Which activation at 10 µM value is on record for C[C@H]1CSc2cc(-c3cnc(C(C)(C)C)c(F)c3)c(C#N)c(=O)n2C1 [Example 106] ?
Outgoing: > 1000%

Incoming: Fill in: activation at 10 µM of C=C1CSc2nc(-c3ccc(C(C)(C)C)nc3)c(C#N)c(=O)n2C1 [Example 114] is ___
Outgoing: > 1000%

Incoming: What value of measured activation at 10 µM is listed for CC(C)(C)c1ccc(-c2cc(=O)n3ccccc3n2)cc1 [Example 12] ?
Outgoing: 10 to 100%

Incoming: Any idea what its activation at 10 µM is? The compound is C=Cc1c(-c2ccc(C(C)(C)C)nc2)nc2n(c1=O)CCCS2 [Example 33]
Outgoing: 10 to 100%

Incoming: So what does the record say about activation at 10 µM for CC1CSc2nc(-c3cnc(C(C)(C)C)c(F)c3)c(C#N)c(=N)n2C1 (stereo not shown) [Example 41] ?
Outgoing: > 1000%

Incoming: Can you look up the measured activation at 10 µM of CC1CCSc2nc(-c3ccc(C(C)(C)C)nc3)c(C#N)c(=O)n21 (stereo not shown) [Example 50] for me?
Outgoing: 100 to 500%

Incoming: Please look up its activation at 10 µM: C=Cc1c(-c2ccc(C(C)(C)C)cc2)nc2n(c1=O)CCCS2 [Example 32]
Outgoing: 10 to 100%

----------
# activation at 10 µM listing for each entry below
Target: human GRIN1 (transcript variant NR1-3) and GRIN2D expressed in Xenopus oocytes (Homo sapiens, UniProt O15399)
Construct: GenScript (GRIN2D synthesis) SC115601; host or cells: Xenopus oocytes injected with cRNA (1 GluN1 : 2 GluN2)
Test: NR2D oocyte potentiation assay (two-electrode voltage clamp)
Assay type: cell-based
Conditions: 10 uM test compound; glutamate and glycine 10 μM each; holding potential −40 mV

Look over these answered cases.
[
  {
    "compound": "CC1CSc2nc(-c3cnc(C(C)(C)C)c(Br)c3)c(C#N)c(=O)n2C1 (stereo not shown) [Example 58]",
    "activation at 10 µM": "> 1000%"
  },
  {
    "compound": "Cc1csc2nc(-c3ccc(C(C)(C)C)nc3)c(C#N)c(=O)n12 [Example 35]",
    "activation at 10 µM": "100 to 500%"
  },
  {
    "compound": "CC(C)(C)c1ccc(-c2cc3n(c(=O)c2C#N)CCCS3)cc1 [Example 68]",
    "activation at 10 µM": "> 1000%"
  },
  {
    "compound": "CC1CSc2nc(-c3ccc(C45CC(C4)C5)nc3)c(C#N)c(=O)n2C1 (stereo not shown) [Example 148]",
    "activation at 10 µM": "100 to 500%"
  },
  {
    "compound": "CC(C)(C)c1ccc(-c2nc3n(c(=O)c2Br)CCCS3)cn1 [Example 30]",
    "activation at 10 µM": "100 to 500%"
  }
]

Incoming: Which value of activation at 10 µM has been reported for CC1CSc2nc(-c3ccc(C(C)(C)C)cc3)c(C#N)c(=O)n2C1 (stereo not shown) [Example 199] in the records?
Outgoing: > 1000%
